Assay: Hair nuance test
Conditions: Type B (Oxidative, H2O2) formulation
endpoint.name: eventual colour of bleached hair, Type B

Reference set, count: 4
* CNCCOc1cc(N)ccc1N [Compound N13] | Grey
* CCOCOc1cc(N)ccc1N [Compound N3, 2-(ethoxymethoxy)benzene-1,4-diamine] | black colour
* Nc1ccc(N)c(OCOCO)c1 [Compound N8, ((2,5-diaminophenoxy)methoxy)methanol] | black colour
* CC(O)COc1cc(N)ccc1N (stereo not drawn) [Compound N10, 1-(2,5-diaminophenoxy)propan-2-ol] | black colour

Read the next record carefully.
[ask] Report eventual colour of bleached hair, Type B, nothing else, for this compound: COC(COc1cc(N)ccc1N)OC [Compound N1]
[reply] black colour
